Assay Protocol: qHTS assay to identify small molecule antagonists of the constitutive androstane receptor (CAR) signaling pathway - cell viability counter screen (AID 1224837); note: nearly all actives have a fitted effect of over 45% in size
Measurement Parameters: HepG2-CYP2B6-hCAR viability, CellTiter-Fluor, 23 h, co-treated with 50 nM CITCO; series mostly up to 92.4 µM
Inconclusive results are not listed. Activity calls are given as the source filed them. Calls come from the whole dose curve; as a rule, active = well fitted cell-killing curve with a large enough effect in the repeat runs; inconclusive = weak or mixed curves, or effect the other way; inactive = flat fitted curve, though single readings scatter.
Select the correct class. Options are active, inactive and nothing else.

So what was the verdict on C=C(C)CCCC(C)CCO (stereo not drawn) in this test?
inactive

New cases:
So what was the verdict on C1COC1 in this test?
inactive

So what was the verdict on CCCCCC[C@@H](O)C/C=C\CCCCCCCC(=O)O in this test?
inactive

So what was the verdict on CC1=C(Br)C(=O)C(Br)=C/C1=C(/c1ccccc1S(=O)(=O)O)c1cc(Br)c(O)c(Br)c1C in this test?
active

So what was the verdict on C=CC(=O)OCC1CC2CC1C1CCC(COC(=O)C=C)C21 (stereo not drawn) in this test?
inactive

So what was the verdict on COC(=O)c1nc(Cl)c(Cl)nc1N in this test?
active

So what was the verdict on CC(C)(O)c1ccc(CNC(=O)c2cccnc2Oc2ccc3nonc3c2)cc1 in this test?
inactive

So what was the verdict on C[C@]12CC[C@@H]3c4ccc(O)cc4CC[C@H]3[C@@H]1CC[C@@H]2OC(=O)CCC1CCCC1 in this test?
inactive

====

Assay Protocol: A CellTox Green Cytotoxicity Assay to monitor cytotoxicity in HepG2 cells - 32 hour (AID 1224883); note: nearly all actives have a fitted effect of over 50% in size
Measurement Parameters: CellTox Green fluorescence; series mostly up to 76.8 µM
Inconclusive results are not listed. Calls of active or inactive are those of the source. Calls follow the shape of the dose curve; as a rule, active = well fitted activation curve with a large enough effect in the repeat runs; inconclusive = weak or mixed curves; inactive = flat fitted curve, though single readings scatter.
Select the correct class. Options are class 1 for active, class 0 for inactive and nothing else.

So what was the verdict on CC(C)(C)CC(=O)OCC(=O)[C@@]1(O)CC[C@H]2[C@@H]3CCC4=CC(=O)C=C[C@]4(C)[C@H]3[C@@H](O)C[C@@]21C in this test?
class 0

New cases:
So what was the verdict on O=Cc1c2ccccc2c(Cl)c2ccccc12 in this test?
class 0

So what was the verdict on C=C(C)C(=O)OCCOCCOC(=O)C(=C)C in this test?
class 0

So what was the verdict on Clc1cc(Cl)nc(Cl)n1 in this test?
class 0

====

Assay Protocol: qHTS assay to identify small molecule agonists of the estrogen receptor alpha (ER-alpha) signaling pathway in the presence of an antagonist - cell viability counter screen (AID 1259386);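 note: cells exposed to compounds for 22 h at 37 °C before the viability read; nearly all actives have a fitted effect of over 30% in size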
Measurement Parameters: VM7Luc4E2 viability, CellTiter-Fluor fluorescence, 22 h; series mostly up to 92.4 µM
Inconclusive results are not listed. The source made the active and inactive calls. Calls come from the whole dose curve; as a rule, active = well fitted cell-killing curve with a large enough effect in the repeat runs; inconclusive = weak or mixed curves, or effect the other way; inactive = no such curve, though single readings can be large or run the other way.
Select the correct class. Options are active, inactive and nothing else.

So what was the verdict on C[C@]1(Cn2ccnn2)[C@H](C(=O)O)N2C(=O)C[C@H]2S1(=O)=O in this test?
inactive

So what was the verdict on CC1=C(Br)C(=O)C(Br)=C/C1=C(/c1ccccc1S(=O)(=O)O)c1cc(Br)c(O)c(Br)c1C in this test?
active

So what was the verdict on CCOC(=O)[C@H](CCc1ccccc1)N[C@@H](C)C(=O)N(CC(=O)O)C1Cc2ccccc2C1 in this test?
inactive

So what was the verdict on CC(=O)Nc1cc(S(=O)(=O)O)cc2cc(S(=O)(=O)O)c(N=Nc3ccccc3)c(O)c12 in this test?
active

So what was the verdict on O=Cc1c2ccccc2c(Cl)c2ccccc12 in this test?
inactive

New cases:
So what was the verdict on Cc1cc(C)cc(N)c1 in this test?
inactive

So what was the verdict on O=C(O)c1cccc(-c2noc(-c3ccccc3F)n2)c1 in this test?
inactive

So what was the verdict on O=C(O)CCc1nc(-c2ccccc2)c(-c2ccccc2)o1 in this test?
inactive

So what was the verdict on OC[C@H]1O[C@@H](n2cnc3c(=S)nc[nH]c32)[C@H](O)[C@@H]1O in this test?
inactive

So what was the verdict on O=c1cc(-c2ccccc2)oc2cc(O)cc(O)c12 in this test?
active
